- System: SF-539
- experiment notes: Growth inhibition of human SF539 cells at 10^-5 M incubated for 48 hrs by sulforhodamine B assay
- Format: functional, cell-based
The source made the active and inactive calls. No cut-off for these calls is given here.
result type: growth inhibition (GI)

CC[C@H](C)C(=O)O[C@@H]1[C@@H]2[C@@H](OC(=O)C(C)C)[C@@]34O[C@]2(O)[C@@](C)([C@@H](CC(=O)OC)C1(C)C)[C@H]3CC[C@]1(C)C4=CC(=O)O[C@H]1C1=CC(O)OC1=O (stereo partly drawn)
inactive
CC[C@H](C)C(=O)O[C@@H]1[C@@H]2[C@@H](OC(=O)C(C)C)[C@@]34O[C@]2(O)[C@@](C)([C@@H](CC(=O)OC)C1(C)C)[C@H]3CC[C@]1(C)C4=CC(=O)O[C@H]1c1ccoc1
inactive
COC(=O)C[C@H]1C(C)(C)[C@H](OC(=O)C(C)C)[C@@H]2[C@@H](OC(=O)C(C)C)[C@@]34O[C@]2(O)[C@]1(C)[C@H]3CC[C@]1(C)[C@H]4CC(=O)O[C@H]1c1ccoc1
inactive
